These entries and their values trace back to ChEMBL document CHEMBL1137298.

Biological target: Adenosine receptor A2b (Homo sapiens)
Assay: Activity at human adenosine A2B receptor in CHO cells assessed as stimulation of cAMP production relative to NECA at 10 uM
List of Activity values.
EXPERIMENTAL READOUT: Activity

# SMILES STRING, TARGET ENTITY, MEASURED VALUE
data = [
    ("CCCOc1ccc(-c2cn(-c3nc(NC)c4ncn([C@@H]5O[C@H](CO)[C@@H](O)[C@H]5O)c4n3)nn2)cc1", "Adenosine receptor A2b (Homo sapiens)", "< 50%"),
    ("CNc1nc(N=[N+]=[N-])nc2c1ncn2[C@@H]1O[C@H](CO)[C@@H](O)[C@H]1O", "Adenosine receptor A2b (Homo sapiens)", "< 50%"),
    ("CNc1nc(-n2cc(CC3CCCC3)nn2)nc2c1ncn2[C@@H]1O[C@H](CO)[C@@H](O)[C@H]1O", "Adenosine receptor A2b (Homo sapiens)", "< 50%"),
    ("CCNC(=O)[C@H]1O[C@@H](n2cnc3c(NC)nc(-n4cc(Cc5ccccc5)nn4)nc32)[C@H](O)[C@@H]1O", "Adenosine receptor A2b (Homo sapiens)", "50%"),
    ("CCNC(=O)[C@H]1O[C@@H](n2cnc3c(NC)nc(-n4cc(-c5ccccn5)nn4)nc32)[C@H](O)[C@@H]1O", "Adenosine receptor A2b (Homo sapiens)", "< 50%"),
    ("CNc1nc(-c2cn(Cc3cccc(OC)c3)nn2)nc2c1ncn2[C@@H]1O[C@H](CO)[C@@H](O)[C@H]1O", "Adenosine receptor A2b (Homo sapiens)", "< 50%"),
    ("CNc1nc(-n2cc(CC3CCCCC3)nn2)nc2c1ncn2[C@@H]1O[C@H](CO)[C@@H](O)[C@H]1O", "Adenosine receptor A2b (Homo sapiens)", "< 50%"),
]
